- target_or_test_system: MD2 (myeloid differentiation protein 2) (Homo sapiens)
- assay_method_text: quenching of MD2 intrinsic fluorescence
- Assay type: binding
measure_name: Kd (µM)
Lab book: enter the figure in µM, no units written.

INPUT: Using the record for C=CCN1CC[C@]23c4c5ccc(O)c4O[C@H]2C(=O)CC[C@@]3(O)[C@H]1C5 [(−)-naloxone] , report its Kd.
OUTPUT: 17.7

---

- target_or_test_system: MD2 (myeloid differentiation protein 2) (Homo sapiens)
- Sequence (Q9Y6Y9 19-160): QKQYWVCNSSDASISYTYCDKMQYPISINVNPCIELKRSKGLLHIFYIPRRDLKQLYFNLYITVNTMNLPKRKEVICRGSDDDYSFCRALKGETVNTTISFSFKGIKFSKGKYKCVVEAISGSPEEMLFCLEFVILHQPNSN
- assay_method_text: quenching of MD2 intrinsic fluorescence
- Assay type: binding
measure_name: pKd
Notebook: values listed as pKd are -log10 of the concentration (mol/L).

INPUT: Provide value of pKd for this record tested with MD2 (myeloid differentiation protein 2) (Homo sapiens): C=CCN1CC[C@@]23c4c5ccc(O)c4O[C@@H]2C(=O)CC[C@]3(O)[C@@H]1C5 [(+)-naloxone]
OUTPUT: 4.78
